System: DU145 (human prostate cell line)
Test: MTT cytotoxicity assay, DU145
Assay type: cell-based
Conditions: DU-145, 48 h, read-out: IC50 DU145
READOUT_LABEL: log10 IC50 (log10 of the value in µM)

| COMPOUND | log10 IC50 |
| --- | --- |
| N#Cc1ccccc1COc1ccccc1C(=O)/C=C/C=C/c1ccccc1 | 1.84 |
| O=C(/C=C/C=C/c1ccccc1)c1ccccc1OCc1ccc(Br)cc1 | 1.23 |
| CCCCCCOc1ccccc1C(=O)/C=C/C=C/c1ccccc1 | 1.46 |
| COc1cccc2c1C(=O)c1c(O)c3c(c(O)c1C2=O)C[C@@](O)(C(=O)CO)C[C@@H]3O[C@H]1C[C@H](N)[C@H](O)[C@H](C)O1 [Doxorubicin, reference compound] | -0.35 |
| O=C(/C=C/C=C/c1ccccc1)c1ccccc1OCc1ccccc1Cl | 1.66 |
| O=C(/C=C/C=C/c1ccccc1)c1ccccc1OCc1ccc(F)cc1 | 2.45 |
| CCCCCOc1ccccc1C(=O)/C=C/C=C/c1ccccc1 | 2.10 |
| O=C(/C=C/C=C/c1ccccc1)c1ccccc1OCc1ccc(Cl)cc1 | 1.67 |

---

Tested on: HEK-293 (human embryonic kidney cell line)
Assay: MTT cytotoxicity assay, HEK-293
Type: cell-based
Conditions: HEK293, 48 h, read-out: IC50 HEK-293
Attribute: log10 IC50
READOUT_LABEL: log10 IC50 (log10 of the value in µM)

| COMPOUND | TARGET_SYSTEM | REPORTED |
| --- | --- | --- |
| O=C(/C=C/C=C/c1ccccc1)c1ccccc1OCc1ccccc1Cl | HEK-293 (human embryonic kidney cell line) | 2.31 |
| CCCCCCOc1ccccc1C(=O)/C=C/C=C/c1ccccc1 | HEK-293 (human embryonic kidney cell line) | 1.99 |
| O=C(/C=C/C=C/c1ccccc1)c1ccccc1OCc1cccc(Cl)c1 | HEK-293 (human embryonic kidney cell line) | 1.48 |
| O=C(/C=C/C=C/c1ccccc1)c1ccccc1O | HEK-293 (human embryonic kidney cell line) | 1.83 |
| O=C/C=C/c1ccccc1 [Compound 1, (E)-3-phenylprop-2-enal, reference compound] | HEK-293 (human embryonic kidney cell line) | 1.31 |
| O=C(/C=C/C=C/c1ccccc1)c1ccccc1OCc1ccc(Cl)c(Cl)c1 | HEK-293 (human embryonic kidney cell line) | 1.31 |
| O=C(/C=C/C=C/c1ccccc1)c1ccccc1OCc1ccc(Br)cc1 | HEK-293 (human embryonic kidney cell line) | 1.44 |
| O=C(/C=C/C=C/c1ccccc1)c1ccccc1OCc1ccc(F)cc1 | HEK-293 (human embryonic kidney cell line) | 1.70 |
| CCCCCOc1ccccc1C(=O)/C=C/C=C/c1ccccc1 | HEK-293 (human embryonic kidney cell line) | 2.02 |
| N#Cc1ccccc1COc1ccccc1C(=O)/C=C/C=C/c1ccccc1 | HEK-293 (human embryonic kidney cell line) | 1.68 |
| O=C(/C=C/C=C/c1ccccc1)c1ccccc1OCc1ccccc1 | HEK-293 (human embryonic kidney cell line) | 2.04 |
| Cc1ccc(COc2ccccc2C(=O)/C=C/C=C/c2ccccc2)cc1 | HEK-293 (human embryonic kidney cell line) | 1.37 |
| O=C(/C=C/C=C/c1ccccc1)c1ccccc1OCCBr | HEK-293 (human embryonic kidney cell line) | 1.27 |
| O=C(/C=C/C=C/c1ccccc1)c1ccccc1OCc1ccc(Cl)cc1 | HEK-293 (human embryonic kidney cell line) | 1.35 |
| O=C(/C=C/C=C/c1ccccc1)c1ccccc1OCc1ccccc1Br | HEK-293 (human embryonic kidney cell line) | 1.37 |
